The measured values listed here are drawn from PubChem BioAssay (NCI).

# System: SW-620 colon
# method-notes: NCI-60 one-dose screen, 48 h
# run-parameters: 10 µM unless noted
Compounds without any hit were thinned out: in the full panel of roughly 83,000, 20% have a hit. Activity calls are given as the source filed them. How the source made its calls: active means growth percent below 10; inactive means the rest.
Result category, one only: Y = active, N = inactive

compound	tested-on	classification
CN1CCN(Cc2ccc(NC(=O)c3nc4ccc5[nH]ncc5c4c4c3CCCC4)cc2C(F)(F)F)CC1	SW-620 colon	Y

Ask: What outcome does the record of this test show for `CCOC(=O)c1cc2c(n1Cc1cc(OC)cc(OC)c1Br)-c1nc(NC(C)=O)sc1CCC2` ?
Result: N

Ask: Moving on to CCCn1nc(C(=O)N2CCCCC2)c2c1CCC(N1CCC(c3ccncc3)CC1)C2 (stereo not drawn)
Result: N

Ask: Next record, please: `C=C1C(=O)O[C@H]2[C@H]1CC/C(COC(=O)NCc1ccc(Cn3c(=O)sn(CCCI)c3=O)cc1)=C\CC[C@@]1(C)O[C@@H]21`
Result: Y

Ask: Same lookup for `O=C(N=Nc1c(O)[nH]c2ccccc12)Nc1ccccc1Cl` , please.
Result: N

Ask: Item: `COc1ccc(-c2ccc(-c3ccc(C(=N)N)cn3)o2)cc1Cl`
Result: Y

Ask: Also need `COc1cc(/C=C2\CCC/C(=C\c3cc(CN4CCCC4)c(O)c(OC)c3)C2=O)cc(CN2CCCC2)c1O` , thanks.
Result: N

Ask: Can you handle `O=S(=O)(Nc1ccc(F)cc1)c1ccc(-c2cnc(C3CC3)o2)cc1` next?
Result: N

Ask: // repeat for `CCOC(=O)C(=Cc1ccc(C#N)cc1)C(=O)OCC` and report
Result: Y

----------
# Tested on: HCT-15 colon
# method-notes: NCI-60 one-dose screen, 48 h
# run-parameters: 100 µM
The panel holds about 83,000 compounds, 20% with a hit somewhere; the sample as a whole holds those more often. Activity calls are given as the source filed them. How the source made its calls: active means growth percent below 10; inactive means the rest.
Pick from active, inactive when you respond.

chemical-smiles	classification
CC(=O)/C=C/c1ccc(N(CCO)Cc2ccc(C(C)(C)C)cc2)cc1	active
CCN(Cc1ccccc1)c1ccc(/C=C2\COc3ccccc3C2=O)cc1	inactive
CC(=O)/C=C/c1ccc(N(C)Cc2ccc(C(C)(C)C)cc2)cc1	active
COc1ccc(C(=O)/C=C/c2ccc(OCc3ccc(Cl)cc3)cc2)cc1OC	inactive

Ask: // outcome(item) with item = `CC(=O)/C=C/c1ccc(OCc2ccc(C(C)(C)C)cc2)cc1`
Result: inactive

----------
# Tested on: U251 CNS
# method-notes: NCI-60 one-dose screen, 48 h
# run-parameters: 10 µM unless noted
The panel holds about 83,000 compounds, 20% with a hit somewhere; the sample as a whole holds those more often. The source made the active and inactive calls. Rule for the calls: active = growth percent below 10; inactive = the rest.
Outcome field: choose from active, inactive

Check out these entries, answers already filled in.
compound	classification
Cc1ccc(S(=O)(=O)OC[C@@]2(C)CC[C@]3(C)CC[C@]4(C)C(=CC[C@@H]5[C@@]6(C)CCCNC(C)(C)[C@@H]6CC[C@]54C)[C@@H]3C2)cc1	active
CCOC(=O)c1nnn(Cc2cc(=O)oc3c2ccc2ccccc23)c1C	inactive
COc1c(F)cc(-n2c(C(=O)N3CC(F)C3)cc3cccnc32)cc1F	inactive
CC(C)(C)c1cc(C(C)(C)c2ccccc2)cc(Cc2cc(C(C)(C)c3ccccc3)cc(C(C)(C)C)c2O)c1O	inactive
O=C(N/N=C/c1ccc(O)cc1O)c1cccc(Nc2ccnc(C(F)(F)F)c2)c1	inactive

Ask: What classification did `COC(=O)N/N=C/c1c[n+]([O-])c2ccccc2[n+]1[O-]` end up with in this test?
Result: inactive

Ask: Continue with `COc1cc(/C=C/C(=O)c2ccc(NC(=O)CSc3nnc(-c4cc(-c5ccccc5)nc5ccccc45)n3-c3ccccc3)cc2)cc(OC)c1OC`
Result: inactive

Ask: What about this compound? `Cc1ccc(Cc2cnc(NC(=O)c3cc(C)oc3C)s2)cc1`
Result: inactive

Ask: Another compound to look at: `COC(=O)/C=C1/SC(=Nc2ccc([N+](=O)[O-])cc2)N(CCc2c[nH]c3ccccc23)C1=O`
Result: inactive

Ask: Another compound to look at: `C/C(=C(\c1ccc(OCCN2CCOCC2)cc1)c1ccc(OC(=O)C2CCCCC2)cc1)c1ccc(Cl)cc1`
Result: inactive

Ask: Request: `Cc1ccc2[nH]c(=S)[nH]c(=O)c2c1`
Result: inactive

Ask: # repeat for `N#Cc1c(N)nnn1Cc1cc(=O)oc2ccc(O)cc12`
Result: inactive

Ask: Here is the next compound: O=C(NNc1ccccc1)C1CCCN1 (centres undefined)
Result: inactive

Ask: And C=C(CNCCO)[C@@H]1CC[C@]2(CO)CC[C@]3(C)[C@H](CC[C@@H]4[C@@]5(C)CCC(NCCc6ccc(O)cc6)C(C)(C)[C@@H]5CC[C@]43C)[C@@H]12 (some centres undefined) ?
Result: active

Ask: Same read-out for `COc1ccc(S(=O)(=O)Nc2cc(Sc3cccc4cccnc34)c(O)c3ccccc23)cc1` ?
Result: active

Ask: Let us now turn to `CCCCSc1ccc2nc(-c3ccc(OCCCN=C(N)N)cc3)cn2c1`
Result: inactive

Ask: // query: `Cc1ccc(/C=C/c2c(C(=O)/C=C/c3ccccc3)c(C)nc3ccccc23)cc1`
Result: active

Ask: Same thing, different compound: `Nc1n[nH]c2cccc(C#Cc3cccc(NC(=O)c4ccc(N5CCOCC5)c(C(F)(F)F)c4)c3)c12`
Result: inactive

Ask: Please do the same for `Clc1ccc(CNc2ccc3nc(CCC4CCCCC4)[nH]c3c2)cc1` as well.
Result: inactive

Ask: Try `C=CCN1C=CC(=O)[C@H](O[Si](C)(C)C(C)(C)C)[C@@H]1/C=C/c1ccccc1` next.
Result: active

Ask: And then `COc1cc(Cl)cc(-c2nn(C(=O)NS(=O)(=O)c3ccc(Cl)cc3)cc2-c2ccncc2)c1` , what is it?
Result: inactive

Ask: Moving on to the next compound: `CCCNNC(=O)/C=C/c1ccc(CNCCc2c(C)[nH]c3ccccc23)cc1`
Result: active

----------
# Test system: HS 578T breast
# method-notes: NCI-60 one-dose screen, 48 h (100 = growth as untreated, 0 = no growth, -100 = all killed)
# run-parameters: 10 µM unless noted
This is part of a sample that, as a whole, favours compounds with a hit. Of some 83,000 tested, about 20% had one in any assay. The source made the active and inactive calls. How the source made its calls: active means growth percent below 10; inactive means the rest.
Entries annotated with measured growth

// below: answered compounds
compound	tested-on	growth
CONC1=Nc2cc(NC(N)=NCc3ccccc3)c(N(C)C3CCCCC3)cc2OC1	HS 578T breast	71.4% (inactive)
Cc1cccc(Cc2cnc(NC(=O)CCCOc3ccc(Cl)cc3)s2)c1	HS 578T breast	21.4% (inactive)
Nc1ccc(-c2ccc(N)c(Br)c2)cc1Br	HS 578T breast	79.5% (inactive)
C=C1CC[C@@H]2[C@](C)(COC(C)=O)[C@H](OC(C)=O)CC[C@@]2(C)[C@@H]1CC(Nc1ccc(S(=O)(=O)Nc2nccs2)cc1)C1=CCOC1=O (stereo not given in full)	HS 578T breast	51.9% (inactive)

Could you now look at the following compound, please?
Ask: Fill in the blank: the reported growth of CCN1C(=O)/C(=c2\sc3n(c2=O)C2C(NN=3)N(CC)C(=O)N2CC)c2ccccc21 (stereo not given) is ____.
Result: 24.4% (inactive)

----------
# System: SR leukemia
# method-notes: NCI-60 one-dose screen, 48 h (100 = growth as untreated, 0 = no growth, -100 = all killed)
# run-parameters: 10 µM unless noted
# Experimental: Growth inhibition of the SR human tumor cell line is measured as a screen for anti-cancer activity. Cells are grown in 96 well plates and exposed to the test compound for 48 hours. Compounds are tested at a single concentration, which is 10^-5 M for most compounds. The reported endpoint is percent growth (GI% or GIPRCNT), where numbers from 0 - 100% represent growth inhibition, and numbers from -100% - 0 represent cell death. For example, a value of 40 represents 60% growth inhibition. […]
About 83,000 compounds went through this panel and 20% of them were active in at least one assay; those are over-represented in the sample as a whole. Activity calls are given as the source filed them. Rule for the calls: active = growth percent below 10; inactive = the rest.
readout-type: growth

molecule	readout-type	observed-result
Nc1ccc(-c2nc3ccc4[nH]ncc4c3c3c2CCCC3)cc1F	growth	10.8% (inactive)
Cc1nc2sc(C(=O)Nc3cccc(Cl)c3C)c(N)c2cc1C(O)c1ccccc1 (stereo not given)	growth	7.23% (active)
C[C@@H]1O[C@@H](O[C@H]2[C@@H](OC(=O)[C@]34CCC(C)(C)C[C@H]3C3=CC[C@@H]5[C@@]6(C)C[C@H](O)[C@H](O[C@@H]7O[C@H](CO)[C@@H](O)[C@H](O)[C@H]7O)[C@@](C)(CO)[C@@H]6CC[C@@]5(C)[C@]3(C)C[C@H]4O)OC[C@@H](O)[C@@H]2O)[C@H](O)[C@H](O[C@@H]2OC[C@@H](O)[C@H](O[C@@H]3OC[C@](O)(CO)[C@H]3O[C@@H]3OC[C@@H](O)[C@H](O)[C@H]3O)[C@H]2O)[C@H]1O[C@@H]1OC[C@](O)(CO)[C@H]1O	growth	67.5% (inactive)
C=C1C(=O)O[C@H]2[C@H]1CC/C(CNS(=O)(=O)c1ccc3ccccc3c1)=C\CC[C@@]1(C)O[C@@H]21	growth	-12.4% (active)
O=C(CCl)n1nnnc1Cc1ccccc1	growth	93.5% (inactive)
Cc1ccc(-c2nc([P+](c3ccccc3)(c3ccccc3)c3ccccc3)c(Nc3ccccc3)o2)cc1	growth	-27.1% (active)
CCCCC1=C(Br)C(=O)c2nc(C)ccc2C1=O	growth	21.8% (inactive)
CC(=O)N1N=C(c2ccc(F)cc2)CC1c1sc(N(C)Cc2ccccc2)nc1Cl (stereo not given)	growth	94.6% (inactive)

Ask: Which growth is reported for this molecule? `O=c1ccc2nc(-c3ccccn3)nn(-c3ccccc3)c-2c1`
Result: 5.21% (active)

Ask: Can you handle `COc1c(NC=O)c2c(c([N+](=O)[O-])c1OC)C(=O)OC2` next?
Result: 86.9% (inactive)

Ask: Another molecule: `Cc1ccc2nc3ccccc3c(NCc3ccc(Cl)cc3)c2c1`
Result: -9.22% (active)

Ask: Further, for N#CC(Cc1cccc2ccccc12)c1cc2ccccc2[nH]1 (stereo not given) ?
Result: 99.2% (inactive)

Ask: Cool, now `O=S(=O)(O)c1ccc(N=Nc2ccc(N=Nc3cccc4ccccc34)c(S(=O)(=O)O)c2)cc1`
Result: 99.4% (inactive)

Ask: Could you do the same for `Cc1ccc(Cc2cnc(NC(=O)c3cc(C)oc3C)s2)cc1` , please?
Result: 29.7% (inactive)

Ask: And what about the molecule CCN1C(=O)/C(=c2\sc3n(c2=O)C2C(NN=3)N(CC)C(=O)N2CC)c2ccccc21 (stereo not given) ?
Result: 15.3% (inactive)

Ask: And what about the molecule `CCC(=O)Oc1cc(Cl)c(Cl)cc1Cl` ?
Result: 101% (inactive)
